Recorded values, source ChEMBL document CHEMBL1122607.

- method-summary: The therapeutic safety margin (TSM) is the ratio of the minimum lethal dose (mg/kg)to the MED
- Assay type: ADME, organism-based
- condition-info: in vivo
metric: therapeutic safety margin (minimum lethal dose / MED)

Cc1cc(C(c2ccccc2Cl)N2CCN(C)CC2)sn1 (stereo unspecified) : 15
CCc1ccc(C(c2ccns2)N2CCN(C)CC2)cc1 (stereo unspecified) : < 20
CCCc1ccc(C(c2ccns2)N2CCN(C)CC2)cc1 (stereo unspecified) : 20
CCC(C)c1ccc(C(c2cc(C)ns2)N2CCN(C)CC2)cc1 (stereo unspecified) : 20
Cc1cnsc1C(c1ccc(C(C)C)cc1)N1CCN(CCO)CC1 (stereo unspecified) : 30
Cc1noc(C)c1C(c1ccc(C(C)C)cc1)N1CCN(C)CC1 (stereo unspecified) : 100
Cc1cc(C(c2ccc(C(C)C)cc2)N2CCNCC2)sn1 (stereo in doubt; 33) : < 10
Cc1cc(C(c2ccc(C(C)C)cc2)N2CCN(C)CC2)sn1 (stereo unspecified) : 15
Cc1noc(C)c1C(=C1CCN(C)CC1)c1ccc(C(C)C)cc1 : 50
CC(C)c1ccc(C(c2ccns2)N2CCNCC2)cc1 (stereo unspecified) : 4
CN1CCN(C(c2ccccc2)c2ccc(Cl)cc2)CC1 (stereo unspecified) [CHLORCYCLIZINE] : 10
